From: patent US12617771B2

Molecular target: PxGSTσ2 (Plutella xylostella)
Sequence (Q6F443 entry or part of it): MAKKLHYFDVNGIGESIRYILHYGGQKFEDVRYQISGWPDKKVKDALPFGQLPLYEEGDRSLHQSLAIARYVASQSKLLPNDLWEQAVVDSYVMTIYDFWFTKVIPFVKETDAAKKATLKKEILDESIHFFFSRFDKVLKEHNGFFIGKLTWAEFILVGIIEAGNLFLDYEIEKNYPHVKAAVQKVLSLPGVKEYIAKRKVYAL
Assay: Inhibition of PxGSTσ2 recombinant protein
Format: biochemical
Conditions: read-out: 100 μM Inhibition rate %
Method: Experiment: 100 μL of PBS buffer (100 mM, pH 7.2) was taken and added to a 96-well plate, 1 μg of PxGSTs recombinant protein and an appropriate concentration of the compounds PXG1-PXG29 of the present invention were added to each well, after uniformly mixing, and allowed to stand at 30° C. for 10 min. Then 100 μL of PBS buffer (100 mM, pH 7.2) containing 1 mM CDNB and 1 mM GSH was successively added to each well. […] Relative inhibition was calculated using the following formula: […]
Cut-off 20% on inhibition at 100 µM, inclusive. At or above means label 1; below means label 0.

For orientation, consider the following solved cases.
COMPOUND_SMILES | CATEGORY
Cc1csc(CC(=O)NNC(=O)c2cc(-c3ccccc3)nn2-c2ccccc2)n1 | label 0
O=C(NNC(=O)c1cc(-c2ccc(Cl)cc2)nn1-c1ccccc1)c1ccccn1 | label 1

input: hey, is inhibition at 100 µM for this one >= 20%? O=C(NNC(=O)c1cc(-c2ccccc2)nn1-c1ccccc1)c1ccccc1
output: label 1

---

The entries below are paired with their reported pIC50.
Target: Carposina sasakii GSTs
Assay: Inhibition of total GSTs enzyme of Carposina sasakii (CDNB method)
Description: Experiment: About 50 mg of larvae/nymphs of nine major pests such as Plutella xylostella, Mythimna separata, Pyrausta nubilalis, Chilo suppressalis, Nilaparvata lugens, Spodoptera frugiperda, Helicoverpa armigera, Carposina sasakii, Spodoptera litura were taken, grounded in a mortar pre-cooled at −80° C., and then 1 mL of 100 mM sodium phosphate buffer (1 mM EDTA, pH 7.2) was added and fully homogenized. […] The protein concentrations of the above total enzymes were determined using the BCA method. […]
pIC50: −log10 of the molar value.

Use the examples below as a reference point.
MOLECULE | ASSAY_VALUE
CC1CCC2(CC1)NC(=O)N(NC(=O)c1cc(-c3ccccc3)nn1-c1ccccc1)C2=O (stereo not shown) | < 4.00
CCCCCCSC[C@H](NC(=O)CC[C@H](N)C(=O)O)C(=O)NCC(=O)O [GTX, S-Hexylglutathione, reference compound] | 5.16
CC1(c2ccccc2)NC(=O)N(NC(=O)c2cc(-c3ccccc3)nn2-c2ccccc2)C1=O (stereo not shown) | < 4.00

Now let's try a different one.
input: Find pIC50 (Carposina sasakii GSTs) for the entry COc1ccccc1CC(=O)NNC(=O)c1cc(-c2ccccc2)nn1-c1ccccc1
output: < 4.00

---

tested on: Chilo suppressalis GSTs; test: Inhibition of total GSTs enzyme of Chilo suppressalis (CDNB method); assay type: biochemical; details: 100 μM
MEASURED_ATTRIBUTE: 100 μM Inhibition rate % (%)
Value expressed in %; do not type the unit.

MOLECULE | ENDPOINT_UNIT | 100 μM Inhibition rate %
O=C(NN1C(=O)NC2(CCCCC2)C1=O)c1cc(-c2ccccc2)nn1-c1ccccc1 | % | 15.98

input: Lab request: please report 100 μM Inhibition rate % under test system Chilo suppressalis GSTs for COc1cc(C(=O)NNC(=O)c2cc(-c3ccccc3)nn2-c2ccccc2)cc(OC)c1OC
output: −10.90

input: Please state recorded 100 μM Inhibition rate % (tested on Chilo suppressalis GSTs) of CC1CCC2(CC1)NC(=O)N(NC(=O)c1cc(-c3ccccc3)nn1-c1ccccc1)C2=O (stereo not shown)
output: 10.53

input: Lab note: need 100 μM Inhibition rate % with Chilo suppressalis GSTs for entry O=C(CC12C[C@H]3C[C@H](C1)C[C@@H](C2)C3)NNC(=O)c1cc(-c2ccccc2)nn1-c1ccccc1 , please look it up.
output: 17.07

input: Record CC1(c2ccccc2)NC(=O)N(NC(=O)c2cc(-c3ccccc3)nn2-c2ccccc2)C1=O (stereo not shown) : what is its 100 μM Inhibition rate % with Chilo suppressalis GSTs?
output: 29.54

input: Return 100 μM Inhibition rate % measured with Chilo suppressalis GSTs given this molecule: O=C(CNc1ccccc1)NNC(=O)c1cc(-c2ccccc2)nn1-c1ccccc1
output: 26.63

input: Notebook: pull reported 100 μM Inhibition rate % for Chilo suppressalis GSTs, entry CN(C)S(=O)(=O)c1cccc(C(=O)NNC(=O)c2cc(-c3ccccc3)nn2-c2ccccc2)c1
output: 34.79

input: For Chilo suppressalis GSTs, provide 100 μM Inhibition rate % of O=C(COc1ccccc1)NNC(=O)c1cc(-c2ccccc2)nn1-c1ccccc1 please.
output: 28.17

input: Form entry - test system: Chilo suppressalis GSTs; read-out: 100 μM Inhibition rate %; molecule: CC1(CCc2ccccc2)NC(=O)N(NC(=O)c2cc(-c3ccccc3)nn2-c2ccccc2)C1=O (stereo not shown)
output: 18.72

input: Item: COc1ccccc1CC(=O)NNC(=O)c1cc(-c2ccccc2)nn1-c1ccccc1 Test system: Chilo suppressalis GSTs Read-out: 100 μM Inhibition rate % Value: ?
output: 5.85

input: Form entry - test system: Chilo suppressalis GSTs; read-out: 100 μM Inhibition rate %; molecule: O=C(NNC(=O)c1cc(-c2ccccc2)nn1-c1ccccc1)c1cc[nH]c(=O)c1
output: 92.32

input: Given the entry O=C(NNC(=O)c1cc(-c2ccccc2)nn1-c1ccccc1)c1ccccc1 , what 100 μM Inhibition rate % was observed with Chilo suppressalis GSTs?
output: 54.79

input: Recorded 100 μM Inhibition rate % for N#Cc1ccccc1OCC(=O)NNC(=O)c1cc(-c2ccccc2)nn1-c1ccccc1 with Chilo suppressalis GSTs, please?
output: 22.83
